Target: NEDD8-activating enzyme E1 regulatory subunit (Homo sapiens) (UniProt Q13564)
Sequence (whole entry): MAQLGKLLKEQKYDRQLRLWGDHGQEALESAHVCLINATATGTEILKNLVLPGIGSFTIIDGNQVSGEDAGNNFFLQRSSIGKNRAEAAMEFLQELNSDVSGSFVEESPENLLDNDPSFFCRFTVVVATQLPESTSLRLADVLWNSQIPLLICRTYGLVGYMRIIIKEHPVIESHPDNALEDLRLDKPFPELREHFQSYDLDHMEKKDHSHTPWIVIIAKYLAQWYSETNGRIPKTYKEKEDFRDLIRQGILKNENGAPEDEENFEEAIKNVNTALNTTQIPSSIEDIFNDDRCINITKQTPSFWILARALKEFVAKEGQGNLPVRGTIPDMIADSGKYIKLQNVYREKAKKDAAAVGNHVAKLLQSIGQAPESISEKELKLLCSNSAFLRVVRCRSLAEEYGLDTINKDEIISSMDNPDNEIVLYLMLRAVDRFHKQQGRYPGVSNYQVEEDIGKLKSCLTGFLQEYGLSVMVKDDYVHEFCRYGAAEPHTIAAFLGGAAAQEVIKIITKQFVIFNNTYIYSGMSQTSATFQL
Experiment: Inhibition of NAE (unknown origin)-mediated neddylation assessed as suppression of cullin1-Nedd8 adduct formation at 25 uM preincubated for 10 mins followed by ATP addition and measured after 30 mins by immunoblot analysis relative to control
Details: time 40.0 min
endpoint: inhibition (%)
Numbers only, in %.

Sample CCOc1nc2cccc(C(=O)N[C@H]3CC[C@H](C(=O)OC)CC3)c2n1Cc1ccc(-c2ccccc2-c2nnn[nH]2)cc1 , system: NEDD8-activating enzyme E1 regulatory subunit (Homo sapiens) (UniProt Q13564). Its inhibition is 28.6

Sample CCOc1nc2cccc(C(=O)NCCc3c[nH]c4ccccc34)c2n1Cc1ccc(-c2ccccc2-c2nnn[nH]2)cc1 , system: NEDD8-activating enzyme E1 regulatory subunit (Homo sapiens) (UniProt Q13564). Its inhibition is 74.7

Sample CCOc1nc2cccc(C(=O)NCCc3ccc(F)cc3F)c2n1Cc1ccc(-c2ccccc2-c2nnn[nH]2)cc1 , system: NEDD8-activating enzyme E1 regulatory subunit (Homo sapiens) (UniProt Q13564). Its inhibition is 35.8

Sample CCOc1nc2cccc(C(=O)NCCCN(C)C)c2n1Cc1ccc(-c2ccccc2-c2nnn[nH]2)cc1 , system: NEDD8-activating enzyme E1 regulatory subunit (Homo sapiens) (UniProt Q13564). Its inhibition is 29.5

Further cases:
Sample CCOc1nc2cccc(C(=O)OC(C)OC(=O)OC3CCCCC3)c2n1Cc1ccc(-c2ccccc2-c2noc(=O)[nH]2)cc1 (stereo not given) , system: NEDD8-activating enzyme E1 regulatory subunit (Homo sapiens) (UniProt Q13564). Its inhibition is 34.2

Cited source: ChEMBL document CHEMBL4732082
